Hello, the source for this data is ChEMBL document CHEMBL3988442, in case you need it.

Readings of Percent Effect for the listed compounds
Test system: Wolbachia pipientis
Experiment: Anti-Wolbachia Cell-Based Screen
Type: functional
Design: scale not given: in the data most compounds retested in dose-response had high values
Settings: 5 µM
The whole screen tested about 48,000 compounds, of which about 13,000 (27%) showed an effect of 50% or more. This is one part of the list.
Value and unit, in that order.

Sample answers from the record:
CS(=O)(=O)NC[C@H]1OC[C@H]2CN(Cc3ccsc3)CC[C@H]21.O=C(O)C(F)(F)F    114.3%
N#Cc1c(Cl)nsc1N1CCN(CC2CC2)CC1    5.491%
CCn1c(C2CCN(C(=O)c3ccc4cc[nH]c4c3)CC2)n[nH]c1=O    3.076%
O=C(c1cncs1)N1CCC(Cc2cnc3[nH]ccc3c2)CC1    101.1%

Lookup result for `CC1CCN(CC2CCN(C(=O)c3c[nH]c4ncccc34)CC2)CC1` ; measured Percent Effect: -10.12%

* * *

System: Wolbachia pipientis
Test: Anti-Wolbachia Cell-Based Screen
Format: functional
Set-up: scale not given: in the data most compounds retested in dose-response had high values
Details: 5 µM
In all, about 48,000 compounds went through this assay and about 13,000 (27%) showed an effect of 50% or more. The list shows a part of the results.
measured property: Percent Effect (%)
The reply should be a number in %, with the unit left off.

// below: answered compounds
CCc1nc(C)c(CN2CCOC(CCCC(C)C)C2)[nH]1 (stereo unspecified)    -5.664
CCn1cnnc1C1CCN(C(=O)C(OC)c2ccccc2)CC1 (stereo unspecified)    -2.664
CCn1cnnc1C1CCN(C(=O)c2ccc3ccccc3n2)CC1    136.7
CCn1cnnc1C1CCN(C(=O)c2cccc(C)c2C)CC1    94.12
CCn1ccnc1CN1CCN(CC(O)Cn2cccn2)CC1 (stereo unspecified)    -2.692

Let us move to another entry and its Percent Effect.
Percent Effect on Wolbachia pipientis for `CCC[C@@H]1CN(Cc2nnc(-c3cccnc3)o2)C[C@H]1NC(C)=O` is -9.676

* * *

Listed next: entries and their corresponding Percent Effect.
System: Wolbachia pipientis
Assay: Anti-Wolbachia Cell-Based Screen
Type: functional
Set-up: scale not given: in the data most compounds retested in dose-response had high values
Details: 5 µM
In all, about 48,000 compounds went through this assay and about 13,000 (27%) showed an effect of 50% or more. The list shows a part of the results.
// note: answer is a bare numeric in %

Answered examples (5):
CCCS(=O)(=O)Nc1ccc2c(c1)OCC(C)(C)C(=O)N2C    -9.167
CC(C)C(=O)Nc1ncn(Cc2cccc(Br)c2)n1    13.22
CC(C)c1ncc2c(n1)CN(Cc1ccc3c(c1)OCCO3)CC2    -34.65
Cc1ncc2c(n1)CN(Cc1nc3ccccc3o1)CC2    10.13
CC(C)NC(=O)N1CC[C@@H]2CN(S(C)(=O)=O)CCO[C@@H]2C1    112.1

Please fill in: Percent Effect reported for `CCc1ccc(CNCC2CCN(CCO)CC2)cc1` = -51.45

Field Percent Effect (entry O=C(c1cnc(-c2cccs2)s1)N1CCCN2CCCC2C1 (configuration not stated) ) reads 13.8

Cc1nccc(-c2ccccc2)c1C(=O)N1CCC2(CC(=O)NC2=O)C1 (configuration not stated) yielded Percent Effect of -6.27

* * *

Test system: Wolbachia pipientis
Test: Anti-Wolbachia Cell-Based Screen
Format: functional
Set-up: scale not given: in the data most compounds retested in dose-response had high values
Conditions: 5 µM
The campaign covered roughly 48,000 compounds. About 13,000 (27%) showed an effect of 50% or more. This is one part of the list.
measured property: Percent Effect (%)
Answer format: numeric, % implied, no suffix.

Cc1cc(NC(=O)CNC(C)(C)c2ccc3c(c2)OCCO3)no1    -9.405
CC1=Nc2c(c(=O)[nH]n2C2CCOCC2)C(c2cccc(Br)c2)S1 (centres undefined)    2.755
CC(CC(F)(F)F)NCc1ccccc1-n1ccnc1 (centres undefined)    3.95
CC(C)(NCC(=O)NCC(F)(F)F)c1ccc2c(c1)OCCO2    5.568
O[C@@H]1C[C@@H](c2nc(-c3cccnc3)no2)N(C2CCOCC2)C1    9.041

Shifting focus to the compound that follows.
Wolbachia pipientis Percent Effect of `Cc1ccc(F)c(OC2(C(=O)O)CCN(C(=O)N3CCCC3)CC2)c1` is -14.67
